Collected set of pIC50 measured with UniProt Q04864 across studies.
pIC50: −log10 of the molar value.
Attribute measured: pIC50

- Compound: "COc1ccc2cc(O)c(C(=O)NC3=CC(=O)C4OC4C3O)cc2c1 (racemic)"
  Assay system: "UniProt Q04864"
  Reported result: 4.80
- Compound: "CC(C)CCOc1cc2oc3nc(=O)[nH]c(=O)c-3cc2cc1F"
  Assay system: "UniProt Q04864"
  Reported result: "> 6.30"
- Compound: "COc1c(C(=O)NC2=CC(=O)C3OC3C2O)ccc(F)c1F (racemic)"
  Assay system: "UniProt Q04864"
  Reported result: 5.09
- Compound: "CC(C)COc1cc2oc3nc(=O)[nH]c(=O)c-3cc2cc1Cl"
  Assay system: "UniProt Q04864"
  Reported result: "> 6.30"
- Compound: "COCCCCOc1cc2oc3nc(=O)[nH]c(=O)c-3cc2cc1F"
  Assay system: "UniProt Q04864"
  Reported result: "> 6.00"
- Compound: "COCCOCCCOc1ccc2cc3c(=O)[nH]c(=O)nc-3oc2c1"
  Assay system: "UniProt Q04864"
  Reported result: "> 6.00"
- Compound: "CCOc1cc2oc3nc(=O)[nH]c(=O)c-3cc2cc1F"
  Assay system: "UniProt Q04864"
  Reported result: "> 6.30"
- Compound: "CC(=O)OCCCCCCOc1ccc2cc3c(=O)[nH]c(=O)nc-3oc2c1Cl"
  Assay system: "UniProt Q04864"
  Reported result: "> 5.30"
- Compound: "CCCCCCCOc1ccc2cc3c(=O)[nH]c(=O)nc-3oc2c1Cl"
  Assay system: "UniProt Q04864"
  Reported result: "> 6.30"
- Compound: "COc1cc(Br)cc2cc3c(=O)[nH]c(=O)nc-3oc12"
  Assay system: "UniProt Q04864"
  Reported result: "> 5.70"
- Compound: "CCCCCCOc1ccc2cc3c(=O)[nH]c(=O)nc-3oc2c1"
  Assay system: "UniProt Q04864"
  Reported result: "> 6.00"
- Compound: "COc1ccc2oc3nc(=O)[nH]c(=O)c-3cc2c1"
  Assay system: "UniProt Q04864"
  Reported result: "> 6.00"
- Compound: "COCCOCCOc1ccc2cc3c(=O)[nH]c(=O)nc-3oc2c1"
  Assay system: "UniProt Q04864"
  Reported result: "> 6.00"
- Compound: "COc1ccc2oc3nc(=S)[nH]c(=O)c-3cc2c1"
  Assay system: "UniProt Q04864"
  Reported result: "> 6.30"
- Compound: "CCCCOc1cc2oc3nc(=O)[nH]c(=O)c-3cc2cc1F"
  Assay system: "UniProt Q04864"
  Reported result: "> 6.30"
- Compound: "O=c1nc2oc3ccccc3cc-2c(=O)[nH]1"
  Assay system: "UniProt Q04864"
  Reported result: "> 5.30"
- Compound: "COCCCCOc1ccc2cc3c(=O)[nH]c(=O)nc-3oc2c1Cl"
  Assay system: "UniProt Q04864"
  Reported result: "> 6.00"
- Compound: "CCCCOc1ccc2cc3c(=O)[nH]c(=O)nc-3oc2c1Cl"
  Assay system: "UniProt Q04864"
  Reported result: "> 6.30"
- Compound: "CCCOc1cc2oc3nc(=O)[nH]c(=O)c-3cc2cc1Cl"
  Assay system: "UniProt Q04864"
  Reported result: "> 6.00"
- Compound: "CCCCCOc1cc2oc3nc(=O)[nH]c(=O)c-3cc2cc1F"
  Assay system: "UniProt Q04864"
  Reported result: "> 6.30"
